Reference source: the supplement of paper PMC10567573

Measured protein stability index, listed per entry.
B1: INTS4 (parent)
chain: IRLVDDAFGKICHMVSDGSWVVRV

Variants of: B1
Assay Info: protein stability index of a GFP-peptide fusion (GPS, HEK-293T) (PSI 1-6); higher = more stable;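 note: lentivirally expressed fusions sorted by FACS into six bins by GFP to DsRed ratio, PSI derived from sequencing read proportions per bin multiplied by bin number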
Test Conditions: c terminus: a fixed tail appended
Output: the number by itself.

Record excerpt, results attached:
protein stability index for D6W is 2.88

protein stability index for D5V is 2.32

protein stability index for V15C is 4.47

protein stability index for V4T is 1.88

protein stability index for L3W is 1.97

More entries:
protein stability index for V24I is 3.12

protein stability index for D5L is 3.22

protein stability index for V15Q is 3.06

protein stability index for V15G is 3.51

protein stability index for M14P is 2.76

protein stability index for W20F is 2.47
